Where do these numbers come from? They come from the RNAGym collection of RNA variant scans (doi:10.7554/elife.80360).

Below is a list of entries, each paired with its recorded self-cleavage value.
B1: HDV Ribozyme (parent)
chain: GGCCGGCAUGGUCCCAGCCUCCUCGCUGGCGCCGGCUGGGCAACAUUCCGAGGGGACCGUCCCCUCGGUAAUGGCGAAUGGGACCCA

Variants of: B1
Test name: self-cleavage, relative activity (ratio to wild type); higher = more cleavage; co-transcriptional
# output: bare number, no unit

Before answering, review these 5 worked examples.
GGCCGUCAUGGGCCCAGCCUCCUCGCUGGCGCCGGCUGGGCAACAUUCCGAGGGGACCGUCCCCUCGGUAAUGGCGAAUGGGACCCA: 0
GGCCGGCAGGGUCCCAGCCUCCUCGCUGGCGCCGGCUGGGCAACAUUCCGUGGGGACCGUCCCCUCGGUAAUGGCGAAUGGGACCCA: 1.22
GGCCGGCAUGGUUCCAGCCUCCUCGCUGGCGCCGGCUGGGCAACAUUCCGAGGGGACCGUCCCCUCGGUAAUGGCGGAUGGGACCCA: 0.399
GGCGGGCAUGGUCCCAGCCUACUCGCUGGCGCCGGCUGGGCAACAUUCCGAGGGGACCGUCCCCUCGGUAAUGGCGAAUGGGACCCA: 0.0292
GGCCGGCAUGGUCCCAGCCCCCUCGCUGGCGUCGGCUGGGCAACAUUCCGAGGGGACCGUCCCCUCGGUAAUGGCGAAUGGGACCCA: 0.0426

Supply reported self-cleavage belonging to this variant: GGCCGGCAUGGUCCCAGCCUCCUCGCUGGCGACGGCUGUGCAACAUUCCGAGGGGACCGUCCCCUCGGUAAUGGCGAAUGGGACCCA
0.237
